Catalogue of protein stability index values
B1: ATE1 (parent)
chain: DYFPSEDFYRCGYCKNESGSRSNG

Variants of: B1
Experiment: protein stability index of a GFP-peptide fusion (GPS, HEK-293T) (PSI 1-6); higher = more stable;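 note: lentivirally expressed fusions sorted by FACS into six bins by GFP to DsRed ratio, PSI derived from sequencing read proportions per bin multiplied by bin number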
Conditions: c terminus: a fixed tail appended
Assay Readout: protein stability index

[
  {
    "Residue Codes": "DYFPSEDFYTCGYCKNESGSRSNG [R10T]",
    "Reported": 2.2
  },
  {
    "Residue Codes": "DYFPSEDFYRCGYCKNESGSRSEG [N23E]",
    "Reported": 2.29
  },
  {
    "Residue Codes": "DYFPSEDDYRCGYCKNESGSRSNG [F8D]",
    "Reported": 2.44
  }
]
